test: Plasma protein binding in human plasma (RED); assay type: in vitro ADME; conditions: plasma (50% plasma, 50% isotonic buffer), pH 7.4, read-out: Protein plasma binding, fu (%)
TEST_READOUT: fraction unbound at 4 h, 10 µM

* O=C(Nc1ccc(I)cc1)N1CCC(n2c(=O)[nH]c3c(Br)cccc32)CC1 [TH5487, reference compound] | 0.001
* Cc1nc(-c2cc(F)c(CC(=O)Nc3noc4c3CCCC4)c(F)c2)c(C)[nH]1 | 0.048
* Cc1nc(-c2ccc(CC(=O)Nc3noc4c3CCCC4)cc2)c(C)[nH]1 | 0.014

----------
In this section we review reported ∆Tm (K) values for a set of compounds.
biological target: UniProtKB O15527; test: Differential scanning fluorimetry (DSF) thermal shift assay; assay type: binding; details: 495 µM
Sequence (O15527 whole entry): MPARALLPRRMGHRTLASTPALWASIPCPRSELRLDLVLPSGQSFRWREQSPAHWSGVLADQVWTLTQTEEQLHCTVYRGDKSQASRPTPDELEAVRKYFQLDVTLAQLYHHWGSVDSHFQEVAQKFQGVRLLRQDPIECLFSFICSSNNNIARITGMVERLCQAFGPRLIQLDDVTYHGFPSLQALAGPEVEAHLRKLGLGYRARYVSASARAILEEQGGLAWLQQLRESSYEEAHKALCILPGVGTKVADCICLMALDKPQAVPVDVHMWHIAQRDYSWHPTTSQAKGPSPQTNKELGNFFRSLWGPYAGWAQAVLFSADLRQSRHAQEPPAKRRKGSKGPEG
TEST_READOUT: ∆Tm (K)

- Cc1n[nH]cc1CNC(=O)C1Cc2ccccc21 (stereo not shown): 0.26
- O=C(Nc1ccc(I)cc1)N1CCC(n2c(=O)[nH]c3c(Br)cccc32)CC1 [TH5487, reference compound]: 4.3
- O=C(NCC1(O)CCC1)c1nc(Cl)cs1: 0.07
- Cc1ccccc1CNC(=O)Nc1cnnn1C: -0.02
- Cc1nocc1NC(=O)Nc1ccnn1C(C)C: -0.03
- CC(=O)Nc1nc(-c2ccc(Cl)cc2)n[nH]1: -0.15
- Cc1cc(NC(=O)c2coc(C3CC3)n2)cs1: -0.08
- Cc1conc1NC(=O)c1csc2cncn12: 0.52
- Cc1ccc(NC(=O)Nc2c[nH]nc2C)s1: 0.35
- Cc1csc(NC(=O)c2ccc(N)cc2)n1: 0.52
- Cc1csc(NC(=O)N2CC(C)C(O)C2)n1 (stereo not shown): 0.07
- O=C(NCc1ccccc1O)c1ccc(F)cc1: 0.67
- Cn1ccnc1NC(=O)c1nc(Cl)cs1: -0.05
